The measured values listed here are drawn from ChEMBL document CHEMBL5579900.

# measured.target: Carbonic anhydrase 1 (Homo sapiens) (UniProt P00915)
# Sequence (P00915 2-261 limits assumed): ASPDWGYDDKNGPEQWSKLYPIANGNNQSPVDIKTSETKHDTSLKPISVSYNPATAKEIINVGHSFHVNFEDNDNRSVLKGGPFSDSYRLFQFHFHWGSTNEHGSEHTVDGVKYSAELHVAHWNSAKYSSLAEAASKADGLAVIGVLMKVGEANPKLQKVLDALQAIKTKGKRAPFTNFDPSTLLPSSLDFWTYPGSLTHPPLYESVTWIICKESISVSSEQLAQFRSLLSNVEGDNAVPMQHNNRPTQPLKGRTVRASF
# measurement.parameters: filed as activator
# Description: Binding affinity to human carbonic anhydrase 1 assessed as activation constant by phenol red dye based stopped-flow method
The compounds listed here are annotated with their log10 of KA.
quantity.name: log10 of KA (log10 of the value in nM)

[[record]]
compound_structure = "COC(=O)[C@H](Cc1ccccc1)NCCCCCCNc1c2c(nc3ccccc13)CCCC2"
quantitative_result = 3.00

[[record]]
compound_structure = "COC(=O)[C@@H](N)Cc1ccc(OCCCCCNc2c3c(nc4ccccc24)CCCC3)cc1"
quantitative_result = 2.74

[[record]]
compound_structure = "N[C@@H](Cc1c[nH]c2ccccc12)C(=O)NCCCCCNc1c2c(nc3ccccc13)CCCC2"
quantitative_result = 2.80

[[record]]
compound_structure = "N[C@@H](CCCCNC(=O)OCc1ccccc1)C(=O)NCCCNc1c2c(nc3ccccc13)CCCC2"
quantitative_result = 3.32

[[record]]
compound_structure = "N[C@@H](Cc1ccccc1)C(=O)NCCCCNc1c2c(nc3ccccc13)CCCC2"
quantitative_result = 2.64

[[record]]
compound_structure = "COC(=O)[C@H](Cc1c[nH]c2ccccc12)NCCCCCNc1c2c(nc3ccccc13)CCCC2"
quantitative_result = 2.78

[[record]]
compound_structure = "COC(=O)[C@H](Cc1ccccc1)NCCCCCNc1c2c(nc3ccccc13)CCCC2"
quantitative_result = 2.86

[[record]]
compound_structure = "COC(=O)[C@@H](N)Cc1ccc(OCCCCCCNc2c3c(nc4ccccc24)CCCC3)cc1"
quantitative_result = 2.85

[[record]]
compound_structure = "N[C@@H](Cc1c[nH]cn1)C(=O)NCCCCNc1c2c(nc3ccccc13)CCCC2"
quantitative_result = 2.99

[[record]]
compound_structure = "CC(C)(C)OC(=O)N[C@@H](Cc1c[nH]c2ccccc12)C(=O)NCCCCCNc1c2c(nc3ccccc13)CCCC2"
quantitative_result = 3.00

[[record]]
compound_structure = "N[C@@H](Cc1c[nH]c2ccccc12)C(=O)NCCCNc1c2c(nc3ccccc13)CCCC2"
quantitative_result = 3.00

[[record]]
compound_structure = "COC(=O)[C@H](Cc1c[nH]c2ccccc12)NCCCCCCNc1c2c(nc3ccccc13)CCCC2"
quantitative_result = 2.64

[[record]]
compound_structure = "COC(=O)[C@H](Cc1c[nH]cn1)NCCCCCCNc1c2c(nc3ccccc13)CCCC2"
quantitative_result = 2.42

[[record]]
compound_structure = "CC(C)(C)OC(=O)N[C@@H](Cc1c[nH]c2ccccc12)C(=O)NCCCCCCNc1c2c(nc3ccccc13)CCCC2"
quantitative_result = 3.05

[[record]]
compound_structure = "c1ccc2c(NCCCCCCNCCc3c[nH]cn3)c3c(nc2c1)CCCC3"
quantitative_result = 2.37

[[record]]
compound_structure = "CC(C)(C)OC(=O)N[C@@H](Cc1c[nH]c2ccccc12)C(=O)NCCCCNc1c2c(nc3ccccc13)CCCC2"
quantitative_result = 3.42

[[record]]
compound_structure = "N[C@@H](Cc1c[nH]cn1)C(=O)NCCCCCCNc1c2c(nc3ccccc13)CCCC2"
quantitative_result = 3.02

[[record]]
compound_structure = "N[C@@H](Cc1c[nH]cn1)C(=O)NCCCNc1c2c(nc3ccccc13)CCCC2"
quantitative_result = 2.76


----------
# measured.target: Carbonic anhydrase 1 (Homo sapiens) (UniProt P00915)
# measurement.parameters: filed as activator
Bucketed by reported KA, buckets being bucket 1 = under 500 nM, bucket 2 = from 500 nM up to 900 nM, bucket 3 = 900 nM and over

[[record]]
compound_structure = "COC(=O)[C@H](CCCCNC(=O)OCc1ccccc1)NCCCCCCNc1c2c(nc3ccccc13)CCCC2"
answer_label = "bucket 3"

[[record]]
compound_structure = "N[C@@H](Cc1c[nH]cn1)C(=O)NCCCCCNc1c2c(nc3ccccc13)CCCC2"
answer_label = "bucket 2"

[[record]]
compound_structure = "N[C@@H](Cc1ccccc1)C(=O)NCCCCCNc1c2c(nc3ccccc13)CCCC2"
answer_label = "bucket 2"

[[record]]
compound_structure = "N[C@@H](Cc1c[nH]c2ccccc12)C(=O)NCCCCNc1c2c(nc3ccccc13)CCCC2"
answer_label = "bucket 2"

[[record]]
compound_structure = "N[C@@H](Cc1ccccc1)C(=O)NCCCCCCNc1c2c(nc3ccccc13)CCCC2"
answer_label = "bucket 1"

[[record]]
compound_structure = "CC(C)(C)OC(=O)N[C@@H](Cc1c[nH]c2ccccc12)C(=O)NCCCNc1c2c(nc3ccccc13)CCCC2"
answer_label = "bucket 3"

[[record]]
compound_structure = "c1ccc2c(NCCCCCNCCc3c[nH]cn3)c3c(nc2c1)CCCC3"
answer_label = "bucket 1"


----------
# measured.target: Carbonic anhydrase 7 (Homo sapiens)
# measurement.parameters: filed as activator
# Description: Binding affinity to human carbonic anhydrase 7 assessed as activation constant by phenol red dye based stopped-flow method
quantity.name: KA (nM)

[[record]]
compound_structure = "CC(C)(C)OC(=O)N[C@@H](Cc1c[nH]c2ccccc12)C(=O)NCCCCNc1c2c(nc3ccccc13)CCCC2"
value_unit = "nM"
quantitative_result = 2630

[[record]]
compound_structure = "N[C@@H](Cc1ccccc1)C(=O)NCCCCNc1c2c(nc3ccccc13)CCCC2"
value_unit = "nM"
quantitative_result = 433

[[record]]
compound_structure = "CC(C)(C)OC(=O)N[C@@H](Cc1c[nH]c2ccccc12)C(=O)NCCCCCCNc1c2c(nc3ccccc13)CCCC2"
value_unit = "nM"
quantitative_result = 1130

[[record]]
compound_structure = "N[C@@H](Cc1c[nH]cn1)C(=O)NCCCCNc1c2c(nc3ccccc13)CCCC2"
value_unit = "nM"
quantitative_result = 391


----------
# measured.target: Cholinesterase (Equus caballus)
# Sequence (P81908 whole entry): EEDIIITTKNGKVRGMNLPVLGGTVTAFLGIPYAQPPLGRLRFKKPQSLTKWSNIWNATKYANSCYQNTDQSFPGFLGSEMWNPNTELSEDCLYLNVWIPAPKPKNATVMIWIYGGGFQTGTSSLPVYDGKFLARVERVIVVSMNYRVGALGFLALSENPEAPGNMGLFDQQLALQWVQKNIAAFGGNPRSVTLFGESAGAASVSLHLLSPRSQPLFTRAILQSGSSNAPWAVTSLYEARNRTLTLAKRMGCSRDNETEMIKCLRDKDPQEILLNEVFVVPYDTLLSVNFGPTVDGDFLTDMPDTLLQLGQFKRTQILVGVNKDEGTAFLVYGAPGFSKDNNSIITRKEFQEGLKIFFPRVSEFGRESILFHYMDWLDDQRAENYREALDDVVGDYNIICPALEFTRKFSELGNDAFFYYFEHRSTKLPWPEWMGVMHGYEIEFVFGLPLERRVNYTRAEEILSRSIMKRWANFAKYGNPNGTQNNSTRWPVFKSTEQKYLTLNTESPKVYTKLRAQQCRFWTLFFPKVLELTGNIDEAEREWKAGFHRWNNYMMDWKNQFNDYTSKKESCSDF
Consider the following molecules and their measured IC50 readings.
quantity.name: IC50 (pM)

[[record]]
compound_structure = "N[C@@H](CCCCNC(=O)OCc1ccccc1)C(=O)NCCCNc1c2c(nc3ccccc13)CCCC2"
quantitative_result = 300

[[record]]
compound_structure = "CC(C)(C)OC(=O)N[C@@H](CCCCNC(=O)OCc1ccccc1)C(=O)NCCCCCNc1c2c(nc3ccccc13)CCCC2"
quantitative_result = 340

[[record]]
compound_structure = "CC(C)(C)OC(=O)N[C@@H](Cc1ccccc1)C(=O)NCCCCCCNc1c2c(nc3ccccc13)CCCC2"
quantitative_result = 91

[[record]]
compound_structure = "N[C@@H](Cc1c[nH]c2ccccc12)C(=O)NCCCCCNc1c2c(nc3ccccc13)CCCC2"
quantitative_result = 1000

[[record]]
compound_structure = "CC(C)(C)OC(=O)N[C@@H](Cc1ccccc1)C(=O)NCCCNc1c2c(nc3ccccc13)CCCC2"
quantitative_result = 160

[[record]]
compound_structure = "N[C@@H](Cc1ccccc1)C(=O)NCCCCNc1c2c(nc3ccccc13)CCCC2"
quantitative_result = 9500

[[record]]
compound_structure = "CC(C)(C)OC(=O)N[C@@H](Cc1c[nH]c2ccccc12)C(=O)NCCCCCNc1c2c(nc3ccccc13)CCCC2"
quantitative_result = 220

[[record]]
compound_structure = "CC(C)(C)OC(=O)N[C@@H](Cc1c[nH]c2ccccc12)C(=O)NCCCCCCNc1c2c(nc3ccccc13)CCCC2"
quantitative_result = 260

[[record]]
compound_structure = "CC(C)(C)OC(=O)N[C@@H](Cc1c[nH]c2ccccc12)C(=O)NCCCCNc1c2c(nc3ccccc13)CCCC2"
quantitative_result = 210

[[record]]
compound_structure = "N[C@@H](Cc1ccccc1)C(=O)NCCCCCCNc1c2c(nc3ccccc13)CCCC2"
quantitative_result = 2700

[[record]]
compound_structure = "N[C@@H](Cc1ccccc1)C(=O)NCCCCCNc1c2c(nc3ccccc13)CCCC2"
quantitative_result = 1900

[[record]]
compound_structure = "COC(=O)[C@@H](N)Cc1ccc(OCCCCCCNc2c3c(nc4ccccc24)CCCC3)cc1"
quantitative_result = 2700

[[record]]
compound_structure = "CC(C)(C)OC(=O)N[C@@H](Cc1c[nH]c2ccccc12)C(=O)NCCCNc1c2c(nc3ccccc13)CCCC2"
quantitative_result = 500

[[record]]
compound_structure = "COC(=O)[C@H](Cc1ccccc1)NCCCCCCNc1c2c(nc3ccccc13)CCCC2"
quantitative_result = 210

[[record]]
compound_structure = "CC(C)(C)OC(=O)N[C@@H](Cc1cn(C(=O)OC(C)(C)C)cn1)C(=O)NCCCCCCNc1c2c(nc3ccccc13)CCCC2"
quantitative_result = 440

[[record]]
compound_structure = "N[C@@H](Cc1c[nH]cn1)C(=O)NCCCCCCNc1c2c(nc3ccccc13)CCCC2"
quantitative_result = 5200


----------
# measured.target: Acetylcholinesterase (Electrophorus electricus, UniProt O42275)
# Sequence (O42275 whole entry): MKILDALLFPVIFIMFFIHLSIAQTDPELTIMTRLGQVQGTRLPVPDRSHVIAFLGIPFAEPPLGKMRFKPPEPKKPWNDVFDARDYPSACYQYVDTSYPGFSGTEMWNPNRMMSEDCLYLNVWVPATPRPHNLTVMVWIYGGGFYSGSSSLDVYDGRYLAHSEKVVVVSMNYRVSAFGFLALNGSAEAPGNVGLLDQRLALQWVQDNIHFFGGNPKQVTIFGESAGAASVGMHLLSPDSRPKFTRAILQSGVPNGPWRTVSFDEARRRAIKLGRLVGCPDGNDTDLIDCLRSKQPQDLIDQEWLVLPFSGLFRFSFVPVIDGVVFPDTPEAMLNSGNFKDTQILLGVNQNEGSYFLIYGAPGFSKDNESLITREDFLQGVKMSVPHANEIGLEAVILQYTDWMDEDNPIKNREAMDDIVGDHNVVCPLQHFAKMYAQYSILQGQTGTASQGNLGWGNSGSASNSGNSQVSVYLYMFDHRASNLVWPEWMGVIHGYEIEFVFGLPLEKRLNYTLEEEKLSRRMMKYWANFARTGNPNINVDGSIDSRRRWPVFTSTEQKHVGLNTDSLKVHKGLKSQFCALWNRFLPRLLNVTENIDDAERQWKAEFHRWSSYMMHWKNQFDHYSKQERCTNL
Let's look at some compounds and their measured IC50.
quantity.name: IC50 (nM)

[[record]]
compound_structure = "CC(C)(C)OC(=O)N[C@@H](Cc1ccccc1)C(=O)NCCCCNc1c2c(nc3ccccc13)CCCC2"
quantitative_result = 158

[[record]]
compound_structure = "N[C@@H](Cc1c[nH]c2ccccc12)C(=O)NCCCNc1c2c(nc3ccccc13)CCCC2"
quantitative_result = 58.9

[[record]]
compound_structure = "c1ccc2c(NCCCCCNCCc3c[nH]cn3)c3c(nc2c1)CCCC3"
quantitative_result = 60.2

[[record]]
compound_structure = "COC(=O)[C@H](CCCCNC(=O)OCc1ccccc1)NCCCCCCNc1c2c(nc3ccccc13)CCCC2"
quantitative_result = 35.6

[[record]]
compound_structure = "COC(=O)[C@H](Cc1c[nH]c2ccccc12)NCCCCCCNc1c2c(nc3ccccc13)CCCC2"
quantitative_result = 23.3

[[record]]
compound_structure = "N[C@@H](Cc1c[nH]cn1)C(=O)NCCCCCCNc1c2c(nc3ccccc13)CCCC2"
quantitative_result = 12.1

